# system: T1, human TGFβ3, mature dimeric form (human, UniProt P10600 301-412)
# T1 sequence: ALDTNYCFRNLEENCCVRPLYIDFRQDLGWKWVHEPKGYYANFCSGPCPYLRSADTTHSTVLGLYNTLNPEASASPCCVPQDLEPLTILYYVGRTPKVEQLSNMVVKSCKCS
# assay-procedure: cell-based or functional assay
property-measured: HEKBlue TGFβ blocking IC50

Prompt: I have this binder here, h6F12.v1.2 (antibody, human IgG1, kappa, N297G, V domains shown) VH: EVTLKESGPVLVKPTETLTLTCTVSGFSLTTYNVHWVRQPPGKALEWMGLIWNTGGTRYNSALKSRLTISKDTSKSQVVLTMTNMDPVDTATYYCARDPVPNKWHFDFWGPGTLVTVSS VL: DIQMTQSPSTLSASVGDRVTITCLASEDIYSNLAWYQQKPGKSPKLLIYDARSLQDGVPSRFSGSGSGPEYTLTISSLQPDDFATYFCQQHHAYPFTFGQGTKVEIKR , and I need its recorded HEKBlue TGFβ blocking IC50.
Response: > 0.2 µM

Prompt: Endpoint output: HEKBlue TGFβ blocking IC50 of 6F12 (antibody, V domains shown, anti-TGFβ2; called rat and rabbit in different places; also called rat 6F12; r6F12) VH: QVQLKESGPGLVQPSQTLSLTCTVSGFSLTTYNVHWVRQPPGKGLEWMGLIWNTGGTRYNSALKSRLSISKDTSKSQVFLRMNSLQTEDTATYYCARDPVPNKWHFDFWGPGTMVTVSS VL: DIQMTQSPASLSASLGETVTIECLASEDIYSNLAWYQQKPGKSPQLLIYDARSLQDGVPSRFSGSESGPQYSLEINSLQSEDAVTYFCQQHHAYPFTFGSGTKLEIK . Value?
Response: > 0.2 µM

Prompt: So what does the record say about HEKBlue TGFβ blocking IC50 for h6F12.v1.1 (antibody, human IgG1, kappa, N297G, V domains shown) VH: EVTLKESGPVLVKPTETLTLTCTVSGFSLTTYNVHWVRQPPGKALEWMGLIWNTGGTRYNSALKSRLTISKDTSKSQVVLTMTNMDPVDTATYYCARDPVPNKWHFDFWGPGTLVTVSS VL: DIQMTQSPSTLSASVGDRVTITCLASEDIYSNLAWYQQKPGKAPKLLIYDARSLQDGVPSRFSGSESGPEYTLTISSLQPDDFATYFCQQHHAYPFTFGQGTKVEIKR ?
Response: > 0.2 µM

This collection of values is drawn from patent US20210301005A1.
